FYI, the data here is from ChEMBL document CHEMBL1123167.

- experiment-notes: Displacement of […] from 5-hydroxytryptamine 1 receptor of rat cortex
reported-metric: Ki

May I ask what Ki has been recorded for COc1ccc(OC)c(C(=O)N2CCNCC2)c1 ?
> 100000 nM

Please do the same for FC(F)(F)c1cccc(N2CCNCC2)c1 as well.
20 nM

What do you get for COc1cc(N2CCNCC2)c(OC)cc1Br ?
820 nM

Now give it for COc1ccc(OC)c(N2CCNCC2)c1 too.
1040 nM

Entry COc1ccc(N)c(C(=O)CCN)c1 please
345 nM

And then COc1cc(N2CCNCC2)c(OC)cc1C , what is it?
680 nM

How about O=C(c1cccc(Cl)c1)N1CCNCC1 ?
17100 nM

Can you check Oc1ccccc1N1CCNCC1 next?
150 nM

Would you kindly repeat that for Cc1cccc(C(=O)N2CCNCC2)c1 ?
20700 nM

Here is the next molecule: COc1ccccc1N1CCNCC1
35 nM

* * *

- system-under-test: Serotonin 2 (5-HT2) receptor (Rattus norvegicus, UniProt P30994+P08909+P14842)
- experiment-notes: Displacement of [3H]ketanserin from 5-hydroxytryptamine 2 receptor of rat cortex
Field: Ki. Provide a value for each of the compounds that follow.
Report as a plain number; the unit µM is understood.

Consider the compound shown here: COc1cc(N2CCNCC2)c(OC)cc1Br What is its recorded Ki?
2.43

Another compound to check: O=C(c1cccc(Cl)c1)N1CCNCC1
55.6

Again, but for COc1ccc(OC)c(N2CCNCC2)c1
8.43

Same question for COc1cc(N2CCNCC2)c(OC)cc1C please.
4.71

Now give it for Oc1ccccc1N1CCNCC1 too.
17.2

Let us now turn to COc1ccccc1N1CCNCC1
3.5

Another compound to look at: Cc1cccc(C(=O)N2CCNCC2)c1
49

Note, next up: FC(F)(F)c1cccc(N2CCNCC2)c1
0.16

Try this compound too: COc1ccc(N)c(C(=O)CCN)c1
8.48
